Origin of values: patent US20010018422A1

# Tested on: tumor cells such as the HT-29 colon carcinoma or LX-1 lung tumor
# test: Cytotoxicity, microculture tetrazolium assay (MTT)
# Format: cell-based
# conditions_used: 48 hours incubation, T/C of 50%, cell line not given
Parameter IC50: see the listing below.
measured_parameter: IC50 (nM)

> print(dat)
                                   molecule  relation.symbol  measurement
1  CON(C)C(=O)c1ccccc1NC(=O)[C@@H]1CCCN1C(=O)[C@H](C(C)C)N(C)C(=O)C(NC(=O)[C@H](C(C)C)N(C)C)C(C)C (stereo partly drawn)                =          400
2  CC(C)C(NC(=O)[C@H](C(C)C)N(C)C)C(=O)N(C)[C@H](C(=O)N1CCC[C@H]1C(=O)NC1CCCC1C(=O)NCc1ccccc1)C(C)C (stereo partly drawn)                >         1000
3  CNC(=O)c1cccc(C2CCCC2)c1NC(=O)[C@@H]1CCCN1C(=O)[C@H](C(C)C)N(C)C(=O)[C@@H](NC(=O)[C@H](C(C)C)N(C)C)C(C)C                =          400
